molecular target: UniProt:P56817; assay: In vitro enzymatic BACE FRET assay; assay type: biochemical; conditions: average IC50; enzyme 0.2 nM, FRET substrate 50 nM, pH 4.2; read-out: BACE 1 FRET assay
quantity.measured: pIC50
On this scale, pIC50 is minus log10 of a concentration expressed in M (mol/L).

// query pIC50 value for entry COc1ccc2c(c1)[C@]1(N=C(N)N(C)C1=O)c1cc(-c3ccc(C)cc3)cc(F)c1O2 (mixture of isomers) 7.87

For CN1C(=O)C[C@@]2(N=C1N)c1cc(-c3cccnc3F)ccc1Oc1cnc(C3=CCCOC3)cc12 , what is its reported pIC50? 5.61

Recorded pIC50 of CN1C(=O)[C@]2(N=C1N)c1cc(C3=CCOCC3)ccc1Oc1ccc(-c3cccnc3F)cc12 (stereo in doubt) , please. 9.05

// pIC50 lookup, key: CN1C(=O)C[C@]2(N=C1N)c1cc(-c3cccnc3F)ccc1Oc1c2cc(C2=CC(C)(C)OCC2)nc1F 9.22

====

biological target: BACE 1 (Beta Secretase enzyme) (Homo sapiens (Human), UniProt P56817); assay: In vitro enzymatic BACE FRET assay; type: biochemical; conditions: average IC50; enzyme 0.2 nM, FRET substrate 50 nM, pH 4.2; read-out: BACE 1 FRET assay
Sequence (P56817 46-501): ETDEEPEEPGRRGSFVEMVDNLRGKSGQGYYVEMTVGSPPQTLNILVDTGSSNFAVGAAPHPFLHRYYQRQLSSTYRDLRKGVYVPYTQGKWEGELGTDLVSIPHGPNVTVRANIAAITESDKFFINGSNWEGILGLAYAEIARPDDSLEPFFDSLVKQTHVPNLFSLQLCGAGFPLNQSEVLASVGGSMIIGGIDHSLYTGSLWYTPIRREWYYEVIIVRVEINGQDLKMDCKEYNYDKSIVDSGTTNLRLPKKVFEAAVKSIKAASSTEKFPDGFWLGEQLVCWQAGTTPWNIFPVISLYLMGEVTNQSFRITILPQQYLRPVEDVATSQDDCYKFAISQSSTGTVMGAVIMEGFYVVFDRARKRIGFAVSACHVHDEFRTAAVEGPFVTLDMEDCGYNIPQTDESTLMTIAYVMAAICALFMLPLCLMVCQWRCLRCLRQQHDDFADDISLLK
pIC50: −log10 of the molar value.
If the reported pIC50 equals or exceeds 8, assign rule met. If not, assign rule not met.

Form field: pIC50 at least 8? Entry: Cc1ccc(-c2cc(F)c3c(c2)[C@]2(N=C(N)N(C)C2=O)c2cc(-c4cccc(Cl)c4)ccc2O3)cc1 (stereo in doubt) [Example 33] rule met

Say whether CN1C(=O)C[C@]2(N=C1N)c1cc(-c3cccnc3F)ccc1Oc1c2cc(C2CCOC(C)(C)C2)nc1F (some centres unmarked) shows pIC50 of 8 or more. rule met

Determine whether this compound has pIC50 no lower than 8: CN1C(=O)CC2(N=C1N)c1cc(-c3cccnc3F)ccc1Oc1c2cc(-c2cccnc2F)nc1F (centres unmarked) rule not met

Hi team, for Cc1ccc(-c2cc(F)c3c(c2)[C@]2(N=C(N)N(C)C2=O)c2cc(-c4cccc(Cl)c4)ccc2O3)cc1 [Example 36] , is the recorded pIC50 at or above 8? rule not met

Is pIC50 at least 8? Consider CN1C(=O)[C@@]2(N=C1N)c1cc(-c3cccc(Cl)c3)ccc1Oc1c(F)cc(C3=CCOCC3)cc12 rule not met
